test: Phase 1 Stage 1 clinical pharmacokinetics of SC ZA co-administered with rHuPH20; format: in vivo, human; conditions: human, serum, sc, […], AUC (0-12 h), Subj 31; ZA […] SC; inf 0.554 hr; PH20 23952 U
Readout: AUC(0-t) (ng·h/mL)
Give your result in ng·h/mL as a bare value.

response.value for O=P(O)(O)C(O)(Cn1ccnc1)P(=O)(O)O [ZA] (field: AUC(0-t)) = 213

====

assay: Phase 1 Stage 1 clinical pharmacokinetics of SC ZA co-administered with rHuPH20; format: in vivo, human; conditions: human, serum, sc, 0.0196 mg/kg, Subj 27; ZA 0.0196 mg/kg SC; inf […]; PH20 23976 U; read-out: Tmax
Readout: Tmax
State the value with its unit after it.

response.value for O=P(O)(O)C(O)(Cn1ccnc1)P(=O)(O)O (field: Tmax) = 43.2 min

====

assay: Phase 1 Stage 1 clinical pharmacokinetics of SC ZA co-administered with rHuPH20; assay type: in vivo, human; settings: human, serum, sc, serum; ZA 2 mg SC infusion + 24000 Units rHuPH20; 2 h post infusion; n=3; read-out: Mean Conc.
Readout: concentration at 2 h (ng/mL)
Give your result in ng/mL as a bare value.

response.value for O=P(O)(O)C(O)(Cn1ccnc1)P(=O)(O)O [ZA] (field: concentration at 2 h) = 41.6

====

experiment: Phase 1 Stage 1 clinical pharmacokinetics of SC ZA co-administered with rHuPH20; type: in vivo, human; conditions: human, serum, sc, […], AUC (0-24 h), Subj 21; ZA […] SC; inf 0.556 hr; PH20 24000 U
Readout: AUC(0-t) (ng·h/mL)
Give your result in ng·h/mL as a bare value.

response.value for O=P(O)(O)C(O)(Cn1ccnc1)P(=O)(O)O [ZA] (field: AUC(0-t)) = 64.7

====

assay: Phase 1 Stage 1 clinical pharmacokinetics of SC ZA co-administered with rHuPH20; type: in vivo, human; details: human, serum, sc, serum; ZA 2 mg SC infusion + 24000 Units rHuPH20; 48 h post infusion; individual subjects; read-out: Zoledronic Acid Concentration
Readout: concentration at 48 h (ng/mL)
Give your result in ng/mL as a bare value.

response.value for O=P(O)(O)C(O)(Cn1ccnc1)P(=O)(O)O (field: concentration at 48 h) = 0.62

====

experiment: Phase 1 Stage 1 clinical pharmacokinetics of SC ZA co-administered with rHuPH20; assay type: in vivo, human; settings: human, serum, sc, 0.0608 mg/kg, AUC (0-48 h), Subj 68; ZA 0.0608 mg/kg SC; inf […]; PH20 2880 U
Readout: AUC(0-t)
State the value with its unit after it.

response.value for O=P(O)(O)C(O)(Cn1ccnc1)P(=O)(O)O (field: AUC(0-t)) = 557 ng·h/mL

====

test: Phase 1 Stage 1 clinical pharmacokinetics of SC ZA co-administered with rHuPH20; format: in vivo, human; settings: human, serum, sc, serum; ZA 1 mg SC infusion + 24000 Units rHuPH20; 8 h post infusion; n=3; read-out: Mean Conc.
Readout: concentration at 8 h (ng/mL)
Give your result in ng/mL as a bare value.

response.value for O=P(O)(O)C(O)(Cn1ccnc1)P(=O)(O)O (field: concentration at 8 h) = 2.69
